- Measured Target: DHP Site of the Calcium Channel (Oryctolagus cuniculus)
- Construct: Washed rabbit skeletal muscle membranes
- Experiment Summary: Binding Assay for Drugs Acting at the DHP Site of the Calcium Channel (3H-nitrendipine displacement, washed rabbit skeletal muscle membranes)
- Particulars: read-out: KI (moles)
pKi: −log10 of the molar value.
Property Label: pKi

COC(=O)C1=C(C)NC(C)=C(C(=O)OCCCN2C(=O)c3ccccc3C2=O)C1c1cccc([N+](=O)[O-])c1 (centres unmarked); 8.32

a. COC(=O)C1=C(C)NC(C)=C(C(=O)OCCN(C)Cc2ccccc2)C1c1cccc([N+](=O)[O-])c1 (centres unmarked) [Nicardipine, nicardipine, reference compound]
b. COC(=O)C1=C(C)NC(C)=C(C(=O)OCCN2C(=O)c3ccccc3C2=O)C1c1cccc(C)c1 (centres unmarked)
c. CC1=C(C(=O)OCCn2c(C)ccc2C)C(c2cccc([N+](=O)[O-])c2)C(C(=O)OCCn2c(C)ccc2C)=C(C)N1
Q: # desc sort on pKi across 3 compounds # respond with the labels, arranged in the requested order
Ans: a, c, b
(a: 8.96, c: 8.60, b: 7.71)

###

- Measured Target: DHP Site of the Calcium Channel (Oryctolagus cuniculus, UniProt P07293)
- Construct: Washed rabbit skeletal muscle membranes
- Sequence (P07293 whole entry): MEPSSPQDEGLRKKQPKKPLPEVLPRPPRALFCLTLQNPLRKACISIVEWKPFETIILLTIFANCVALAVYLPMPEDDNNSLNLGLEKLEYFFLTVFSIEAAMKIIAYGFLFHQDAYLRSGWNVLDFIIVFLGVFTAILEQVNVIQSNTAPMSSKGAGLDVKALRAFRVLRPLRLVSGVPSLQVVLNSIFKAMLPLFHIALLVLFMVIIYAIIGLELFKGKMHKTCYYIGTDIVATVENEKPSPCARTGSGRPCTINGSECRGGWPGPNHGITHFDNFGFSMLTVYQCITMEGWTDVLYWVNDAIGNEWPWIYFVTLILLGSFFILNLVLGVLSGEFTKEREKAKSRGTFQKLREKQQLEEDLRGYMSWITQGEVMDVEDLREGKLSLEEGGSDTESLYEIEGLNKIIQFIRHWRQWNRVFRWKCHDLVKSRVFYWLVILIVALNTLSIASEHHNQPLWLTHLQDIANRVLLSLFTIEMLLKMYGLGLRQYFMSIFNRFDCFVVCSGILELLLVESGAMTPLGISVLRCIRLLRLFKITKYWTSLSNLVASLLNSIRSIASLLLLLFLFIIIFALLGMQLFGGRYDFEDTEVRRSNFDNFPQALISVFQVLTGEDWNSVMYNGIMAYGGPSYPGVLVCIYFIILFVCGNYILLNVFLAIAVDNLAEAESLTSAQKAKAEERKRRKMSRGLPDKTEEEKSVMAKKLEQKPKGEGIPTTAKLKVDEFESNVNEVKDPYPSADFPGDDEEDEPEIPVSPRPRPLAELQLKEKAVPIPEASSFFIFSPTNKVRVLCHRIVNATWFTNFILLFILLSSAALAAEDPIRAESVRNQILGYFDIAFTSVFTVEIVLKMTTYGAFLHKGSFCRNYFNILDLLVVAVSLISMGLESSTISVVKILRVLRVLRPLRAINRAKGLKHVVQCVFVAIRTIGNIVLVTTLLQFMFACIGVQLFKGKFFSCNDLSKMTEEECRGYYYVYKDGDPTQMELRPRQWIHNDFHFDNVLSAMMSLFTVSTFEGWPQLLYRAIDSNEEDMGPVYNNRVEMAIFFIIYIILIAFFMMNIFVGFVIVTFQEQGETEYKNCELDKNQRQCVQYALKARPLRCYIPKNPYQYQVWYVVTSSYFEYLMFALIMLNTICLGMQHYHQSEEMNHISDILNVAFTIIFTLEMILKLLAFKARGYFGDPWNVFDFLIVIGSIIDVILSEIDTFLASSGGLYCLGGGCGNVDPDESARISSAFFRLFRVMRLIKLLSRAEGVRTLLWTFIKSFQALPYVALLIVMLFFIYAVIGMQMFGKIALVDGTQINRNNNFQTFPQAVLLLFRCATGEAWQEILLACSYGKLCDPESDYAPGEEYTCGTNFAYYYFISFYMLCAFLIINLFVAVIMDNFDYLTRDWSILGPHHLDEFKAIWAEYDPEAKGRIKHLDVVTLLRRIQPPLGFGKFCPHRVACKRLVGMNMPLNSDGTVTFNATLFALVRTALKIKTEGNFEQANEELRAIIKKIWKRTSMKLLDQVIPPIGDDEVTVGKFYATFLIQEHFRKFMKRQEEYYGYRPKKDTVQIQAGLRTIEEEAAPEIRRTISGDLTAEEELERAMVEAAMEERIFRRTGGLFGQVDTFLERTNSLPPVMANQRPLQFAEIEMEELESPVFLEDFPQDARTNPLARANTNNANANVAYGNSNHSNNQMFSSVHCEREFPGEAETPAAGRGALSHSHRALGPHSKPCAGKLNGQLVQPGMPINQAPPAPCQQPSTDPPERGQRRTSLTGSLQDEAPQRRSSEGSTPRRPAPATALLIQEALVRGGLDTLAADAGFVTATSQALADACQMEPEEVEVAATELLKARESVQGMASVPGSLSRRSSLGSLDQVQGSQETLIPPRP
- Experiment Summary: Binding Assay for Drugs Acting at the DHP Site of the Calcium Channel (3H-nitrendipine displacement, washed rabbit skeletal muscle membranes)
- Particulars: read-out: KI (moles)
Property Label: Ki (nM)

P. COC(=O)C1=C(C)NC(C)=C(C(=O)OCCN2Cc3ccccc3C2=O)C1c1cccc([N+](=O)[O-])c1 (stereo not shown) [Example 7]
Q. CC1=C(C(=O)OCCN2C(=O)c3ccccc3C2=O)C(c2cccc([N+](=O)[O-])c2)C(C(=O)OCCN2C(=O)c3ccccc3C2=O)=C(C)N1 [Example 4]
Q: P or Q : whose Ki is greater? Your choice should be expressed through its label.
Ans: P
(P: 20 nM, Q: 2.5 nM)

I. COC(=O)C1=C(C)NC(C)=C(C(=O)OCCN2C(=O)CCC2=O)C1c1cccc([N+](=O)[O-])c1 (stereo not shown) [Example 9]
II. COC(=O)C1=C(C)NC(C)=C(C(=O)OCCN2Cc3ccccc3C2)C1c1cccc([N+](=O)[O-])c1 (stereo not shown) [Example 8]
Q: Quick one: lower Ki, I or II ? Your choice should be expressed through its label.
Ans: II
